Kindly supply the reported GI50 values for the records listed here.
# System: HT-29
# assay.explanation: NCI tumour cell line growth inhibition, 48 h
Active and inactive are the calls of the source. Cut-off read from the data, not from the text of the source: active = GI50 up to about 1.1 µM and inactive = higher.

In the examples that follow, each entry is paired with its recorded GI50.
- molecule: "CCN(CC)CCSc1c2cc(OC)ccc2nc2ccc(OC)cc12"
  GI50: "2.05 µM (inactive)"
- molecule: "COc1cc(C2c3cc4c(cc3OC(NCc3ccccc3)C2C)OCO4)cc(OC)c1OC (stereo not given)"
  GI50: "0.337 µM (active)"
- molecule: "N#CC1=C(N)OC(c2cccc([N+](=O)[O-])c2)C1(C#N)C#N (stereo not given)"
  GI50: "19.1 µM (inactive)"

List reported GI50 for each of these molecules:
1. O=C(O)CN1CCNCCN(CC(=O)O)CCN(CC(=O)O)CCNCC1
2. OCC1OC(n2cnc3c(Cl)nc(Nc4ccccc4)nc32)CC1O (stereo not given)
3. COc1ccc2c3c(ccc2c1)NC(C(=O)O)CC3 (stereo not given)
4. CC(=O)N(C(C)=O)c1cc2c3c(c1)CCCN3CCC2
5. COC(=O)C1=C(C(=O)OC)SC(=C2SCSC3=C2SC(C(=O)OC)=C(C(=O)OC)C32SC3=C(CCCC3)S2)S1
6. CCN(CC)C(=O)Cn1c2ccccc2[n+]2cc(N)ccc12
7. O=C(Nc1ccc([N+](=O)[O-])cc1[N+](=O)[O-])C(=O)C(C(=O)c1ccc(Cl)c(Cl)c1)C1OC(=O)c2ccccc21 (stereo not given)
8. O=C1OC(=O)C2C3C=CC(C12)C1C2C=CC2C31 (stereo not given)

Result:
1: 26.7 µM (inactive); 2: > 100 µM (inactive); 3: 45.2 µM (inactive); 4: > 10 µM (inactive); 5: > 100 µM (inactive); 6: > 100 µM (inactive); 7: 25.8 µM (inactive); 8: > 100 µM (inactive)

Your task in this section: give GI50 for each listed record.
1. CC[C@@]1(O)C[C@H](OC2CC(N(C)C)C(O)C(C)O2)c2c(O)c3c(c(O)c2[C@H]1OC1CC(N(C)C)C(O)C(C)O1)C(=O)c1cccc(O)c1C3=O (stereo not given in full)
2. O=C(Nc1cc2c(=O)oc3ccccc3c2oc1=O)c1cccnc1
3. N/C(=N\N=C\c1cc2ccccc2s1)c1cnccn1
4. O=C1Nc2c(Cl)cccc2/C1=N/Nc1ccccc1[N+](=O)[O-]
5. Brc1ccc(/N=N/c2ccc3ccccc3n2)cc1
6. S=C(N/N=C(/c1ccccc1)c1ccccn1)N1CCCCCC1
7. COc1ccc(OC)c(C2CCCc3c2cnc2nc(N)nc(N)c32)c1 (stereo not given)
8. Cc1cc(Cc2cc(C)c(NC(=O)C(=O)C3C(=O)NC(=S)NC3=O)c(C(C)C)c2)cc(C(C)C)c1NC(=O)C(=O)C1C(=O)NC(=S)NC1=O

Result:
1. 0.0224 µM (active)
2. > 100 µM (inactive)
3. > 100 µM (inactive)
4. 12.5 µM (inactive)
5. 47.4 µM (inactive)
6. < 0.0141 µM (active)
7. < 0.01 µM (active)
8. > 100 µM (inactive)

Q: # return recorded GI50 for input O=C(CC(=O)Nc1ccccc1Cl)NNC(Sc1ccccc1)c1cc(/N=N/c2ccc(Br)cc2)ccc1O (stereo not given)
Result: > 10 µM (inactive)
